study-system: UniProt:P14902
Sequence (P14902 whole entry): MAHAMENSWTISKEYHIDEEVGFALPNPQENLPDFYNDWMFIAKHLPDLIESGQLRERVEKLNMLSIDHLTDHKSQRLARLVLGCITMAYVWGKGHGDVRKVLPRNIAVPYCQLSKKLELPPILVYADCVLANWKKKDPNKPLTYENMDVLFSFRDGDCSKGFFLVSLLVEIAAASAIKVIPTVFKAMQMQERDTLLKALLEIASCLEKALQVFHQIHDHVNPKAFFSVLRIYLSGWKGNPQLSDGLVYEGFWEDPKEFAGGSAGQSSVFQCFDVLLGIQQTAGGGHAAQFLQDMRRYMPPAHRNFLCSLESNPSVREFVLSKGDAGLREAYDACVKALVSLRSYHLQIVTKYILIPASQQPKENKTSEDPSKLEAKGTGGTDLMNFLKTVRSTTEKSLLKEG
experiment-description: Inhibition of IDO1 in human HeLa cells using L-tryptophan as substrate after 20 hrs
Format: cell-based
parameter: IC50

As a guide, the following entries are already answered.
NOC(c1ccccc1)c1cc(C(F)(F)F)ccc1F (centres undefined) = 1.09 µM
NOC(c1ccc(Cl)cc1)c1ccc(Cl)cc1 = 1.09 µM

Request the reported IC50 associated with NOC(c1ccccc1)c1ccccc1Br (centres undefined)
1.46 µM

Give the measured IC50 of NOC(c1ccccc1)c1cccc(C(F)(F)F)c1F (centres undefined) .
0.933 µM

May I ask what IC50 has been recorded for NOC(c1ccccc1)c1ccc(O)cc1 (centres undefined) ?
2.89 µM

Field request: IC50 | item: NOC(CCc1cccc(Cl)c1)c1ccccc1 (centres undefined)
6.74 µM

What measured IC50 goes with "NOC(c1ccc(F)cc1)c1ccc(F)cc1" ?
1.68 µM

Form field: reported IC50 of NOC(c1ccccc1)c1cccc(F)c1 (centres undefined)
0.939 µM

Name the reported IC50 value associated with the compound NOC(c1ccccc1)c1ccc(Cl)c(Cl)c1 (centres undefined)
1.91 µM
